- test_target: CYP3A (Homo sapiens, UniProt P08684)
- Sequence (P08684 2-503): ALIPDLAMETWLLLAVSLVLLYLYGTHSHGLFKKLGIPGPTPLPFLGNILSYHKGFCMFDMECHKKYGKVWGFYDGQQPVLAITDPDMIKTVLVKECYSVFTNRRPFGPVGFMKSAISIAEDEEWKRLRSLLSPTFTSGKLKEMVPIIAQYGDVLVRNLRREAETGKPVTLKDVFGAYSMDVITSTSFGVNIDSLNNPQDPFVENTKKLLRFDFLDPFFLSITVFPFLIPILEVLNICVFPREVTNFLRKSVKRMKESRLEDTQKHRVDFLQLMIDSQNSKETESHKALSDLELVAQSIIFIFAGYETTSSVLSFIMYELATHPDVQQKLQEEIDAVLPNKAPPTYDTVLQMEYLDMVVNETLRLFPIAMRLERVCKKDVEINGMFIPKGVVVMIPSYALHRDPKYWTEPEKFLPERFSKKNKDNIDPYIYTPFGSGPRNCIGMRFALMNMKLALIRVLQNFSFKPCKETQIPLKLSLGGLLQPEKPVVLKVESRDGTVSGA
- test_protocol: CYP3A inhibition in HLMs (midazolam, nifedipine, testosterone)
- experimental_parameters: pooled human liver microsomes, pH 7.4, probe midazolam (cocktail set B), IC50 TDI, CYP3A (midazolam), HLMs, midazolam, 30 min pre-incubation with NADPH generating system
Listed here: items and their measured IC50 at 10 min.
Only the number, expressed in nM, is required.

For orientation, consider the following solved cases.
input_smiles | uom | readout_number
COc1cc2c(c(OC)c1OC)-c1c(cc3c(c1OC)OCO3)C[C@H](C)[C@H](C)C2 | nM | 1700
COc1c2c(cc3c1-c1c(cc4c(c1OC)OCO4)C[C@H](C)[C@H](C)C3)OCO2 | nM | 2500
COc1cc2c(c(OC)c1OC)-c1c(cc3c(c1OC)OCO3)C[C@H](C)[C@](C)(O)[C@H]2OC(=O)c1ccccc1 | nM | 100

Could you now look at the following molecule, please?
In: I have this molecule here, `COc1cc2c(c(OC)c1OC)-c1c(cc(OC)c(OC)c1OC)C[C@](C)(O)[C@@H](C)C2` , and I need its recorded IC50 at 10 min.
Out: 35000

---

- test_target: CYP3A (Homo sapiens)
- test_protocol: CYP3A inhibition in HLMs (midazolam, nifedipine, testosterone)
- experimental_parameters: pooled human liver microsomes, pH 7.4, probe nifedipine (cocktail set B)
measurement_name: IC50 shift at 10 min
Give the value as a plain number.

In: I have this compound here, `COc1cc2c(c(OC)c1OC)-c1c(cc3c(c1OC)OCO3)C[C@H](C)[C@H](C)C2` , and I need its recorded IC50 shift at 10 min.
Out: 2.4

---

Listed here: items and their measured IC50 at 10 min.
- test_target: CYP3A (Homo sapiens, UniProt P08684)
- test_protocol: CYP3A inhibition in HLMs (midazolam, nifedipine, testosterone);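 note: pooled HLMs at 0.25 mg/mL in phosphate buffer, inhibitor across 0–50 µM, 10 min reaction at 37 °C after preincubation, probe metabolite quantified by LC-MS/MS, triplicate incubations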
- experimental_parameters: pooled human liver microsomes, pH 7.4, probe midazolam (cocktail set B), IC50 RI, CYP3A (midazolam), HLMs, midazolam, reversible inhibition
Only the number, expressed in µM, is required.

input_smiles | readout_number
COc1cc2c(c(OC)c1OC)-c1c(cc3c(c1OC)OCO3)C[C@H](C)[C@H](C)C2 | 4.5
COc1c2c(cc3c1-c1c(cc4c(c1OC)OCO4)C[C@H](C)[C@H](C)C3)OCO2 | 25.9
COc1cc2c(c(OC)c1OC)-c1c(cc(OC)c(OC)c1OC)C[C@](C)(O)[C@@H](C)C2 | 10.5

In: I have this molecule here, `COc1cc2c(c(OC)c1OC)-c1c(cc3c(c1OC)OCO3)C[C@H](C)[C@](C)(O)[C@H]2OC(=O)c1ccccc1` , and I need its recorded IC50 at 10 min.
Out: 0.3

---

- test_target: UniProtKB P11712
- Sequence (P11712 whole entry): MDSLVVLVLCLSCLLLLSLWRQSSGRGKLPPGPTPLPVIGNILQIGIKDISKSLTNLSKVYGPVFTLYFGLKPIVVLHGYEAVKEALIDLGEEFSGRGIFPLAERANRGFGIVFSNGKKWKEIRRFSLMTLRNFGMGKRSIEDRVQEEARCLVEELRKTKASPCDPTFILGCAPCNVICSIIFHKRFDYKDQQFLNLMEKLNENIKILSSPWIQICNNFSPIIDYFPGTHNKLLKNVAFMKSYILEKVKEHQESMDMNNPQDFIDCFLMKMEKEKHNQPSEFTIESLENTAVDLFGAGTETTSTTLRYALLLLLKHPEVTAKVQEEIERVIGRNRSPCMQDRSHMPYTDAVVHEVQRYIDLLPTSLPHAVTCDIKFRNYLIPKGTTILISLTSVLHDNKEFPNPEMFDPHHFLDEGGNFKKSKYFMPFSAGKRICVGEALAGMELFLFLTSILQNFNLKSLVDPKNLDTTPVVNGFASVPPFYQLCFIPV
- test_protocol: in vitro
- experimental_parameters: microsomes, pH 7.4, IC50 Shift
measurement_name: IC50 shift at 10 min

In: I have this compound here, COc1cc2c(c(OC)c1OC)-c1c(cc3c(c1OC)OCO3)C[C@H](C)[C@H](C)C2 [Gomisin N, gomisin N] , and I need its recorded IC50 shift at 10 min.
Out: > 1.8

---

- test_target: CYP2B6 (Homo sapiens)
- Construct: pooled HLMs (0.25 mg/mL); tissue XenoTech H2630; host or cells: pooled human liver microsomes, mixed gender
- Sequence (P20813 1-491): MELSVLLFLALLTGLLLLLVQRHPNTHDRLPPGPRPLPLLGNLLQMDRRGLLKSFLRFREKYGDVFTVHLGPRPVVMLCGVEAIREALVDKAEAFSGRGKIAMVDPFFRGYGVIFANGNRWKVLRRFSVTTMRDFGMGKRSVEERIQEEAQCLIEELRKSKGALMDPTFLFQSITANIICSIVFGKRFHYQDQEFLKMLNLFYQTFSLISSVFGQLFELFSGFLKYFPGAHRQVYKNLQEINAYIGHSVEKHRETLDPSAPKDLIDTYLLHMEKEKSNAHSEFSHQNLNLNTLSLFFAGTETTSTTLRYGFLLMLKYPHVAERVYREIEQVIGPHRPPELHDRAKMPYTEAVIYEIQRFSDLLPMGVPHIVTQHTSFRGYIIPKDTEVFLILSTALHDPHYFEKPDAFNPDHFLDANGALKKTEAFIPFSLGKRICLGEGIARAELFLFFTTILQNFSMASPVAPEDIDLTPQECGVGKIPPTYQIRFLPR
- test_protocol: CYP2B6 inhibition in HLMs (bupropion)
- Type: in vitro ADME
- experimental_parameters: 30 min pre-incubation with NADPH generating system, read-out: IC50 TDI, CYP2B6
measurement_name: IC50

For orientation, consider the following solved cases.
input_smiles | IC50
COc1cc2c(c(OC)c1OC)-c1c(cc(OC)c(OC)c1OC)C[C@](C)(O)[C@@H](C)C2 | > 50 µM
COc1cc2c(c(OC)c1OC)-c1c(cc3c(c1OC)OCO3)C[C@H](C)[C@H](C)C2 | > 50 µM
COc1cc2c(c(OC)c1OC)-c1c(cc3c(c1OC)OCO3)C[C@H](C)[C@](C)(O)[C@H]2OC(=O)c1ccccc1 | > 50 µM

Could you now look at the following compound, please?
In: I have this compound here, `COc1c2c(cc3c1-c1c(cc4c(c1OC)OCO4)C[C@H](C)[C@H](C)C3)OCO2` , and I need its recorded IC50.
Out: 1.4 µM
